Entries and their TGI values follow.
system: BT-549 breast; experiment: NCI tumour cell line growth inhibition, 48 h

[
  {
    "compound": "CC(=O)OCC1OC(O[C@@H]2C[C@H]3C(C)(C)[C@H](OC(C)=O)CC[C@]3(C)[C@H]3CC[C@@H]4[C@]5(CC[C@@]4(C)[C@@]32C)O[C@@H]([C@H](O)C(C)(C)O)C[C@@H]5C)C(O)C(O)C1O (some centres not stated)",
    "TGI": "24.5 µM"
  },
  {
    "compound": "COc1ccccc1OCC(O)CO (configuration not stated)",
    "TGI": "> 100 µM"
  },
  {
    "compound": "COCCOCCOCCOCCOc1ccc2c(c1)C(=O)c1nc3ncccc3c(=O)n1-2",
    "TGI": "2.3 µM"
  }
]

Short answer for OCC1=C[C@@](COCc2ccccc2)(OCc2ccccc2)[C@@H](OCc2ccccc2)[C@@H]1OCc1ccccc1 : TGI was 98.1 µM

Short answer for CCCNC(=O)Cn1c(-c2ccccc2)cc2ccccc21 : TGI was > 100 µM

Short answer for C[C@@H]1CC[C@H]2C(CN3CCN(CC4=C(C(F)(F)F)O[C@@H]5O[C@@]6(C)CC[C@H]7[C@H](C)CC[C@@H]4[C@@]57OO6)CC3)=C(C(F)(F)F)O[C@@H]3O[C@@]4(C)CC[C@@H]1[C@]32OO4 : TGI was > 100 µM

====

Entries and their TGI values follow.
tested on: NCI-H522 lung; assay: NCI tumour cell line growth inhibition, 48 h
Output spec: scalar in µM, unitless text.

Worked examples, 3 compounds total:
[
  {
    "compound": "CCCNC(=O)Cn1c(-c2ccccc2)cc2ccccc21",
    "units.symbol": "µM",
    "reported.result": 60.1
  },
  {
    "compound": "C=C1C(=O)O[C@H]2[C@@H](O)[C@H](C)CCC/C(C)=C/CC[C@@]3(C)O[C@@H]3C[C@@H]12",
    "units.symbol": "µM",
    "reported.result": 8.28
  },
  {
    "compound": "CC(C)(CN1CCCCC1)C(=O)CC(SCCS(=O)(=O)O)c1ccc(Cl)c(Cl)c1 (centres undefined)",
    "units.symbol": "µM",
    "reported.result": 5.59
  }
]

Pending compound:
Short answer for CCCCCCCCCCCOCCC1C(C(C)OCCN2CCCC2)OC2OC(C)(C)OC21 (centres undefined) : TGI was 1.05

====

test system: RXF 393 renal; test: NCI tumour cell line growth inhibition, 48 h
Classification field: 1 = TGI at or over 20 µM; 0 = TGI under 20 µM.

Sample answers from the record:
[
  {
    "compound": "C[N+](C)(C)c1nc(N)nc2c1ncn2C1OC(CO)C(O)C1O (stereo not given)",
    "label.class": 1
  },
  {
    "compound": "O/N=C1/CCCCC1NO (stereo not given)",
    "label.class": 1
  },
  {
    "compound": "COc1cc([N+](=O)[O-])c2ncccc2c1O",
    "label.class": 1
  },
  {
    "compound": "CC(=O)Oc1ccc(-c2c(OC(C)=O)c(OC(C)=O)c(-c3ccc(OC(C)=O)c(OC(C)=O)c3)c(OC(C)=O)c2OC(C)=O)cc1",
    "label.class": 1
  },
  {
    "compound": "O=C(O)CCN1C(=O)/C(=C/C(Cl)=C/c2ccccc2)SC1=S",
    "label.class": 0
  }
]

Query: Entry O=C(O)c1cc2c(cc1CC(Cc1ccccc1)C(=O)O)CCC2 (stereo not given) : is its TGI no less than 20 µM?
Response: 1

Query: Entry C(=C1/CCCCC([n+]2ccccc2)=N1)/c1ccccc1 : is its TGI no less than 20 µM?
Response: 1

Query: Entry O=c1c2cc(Cl)ccc2n2nnc3ccc(NCCNCCO)c1c32 : is its TGI no less than 20 µM?
Response: 0

Query: Entry CC(Cl)CC(=O)Nc1ccc2c(c1)oc(=O)c1cc(NC(=O)CC(C)Cl)ccc12 (stereo not given) : is its TGI no less than 20 µM?
Response: 1

====

system: SK-MEL-5 melanoma; test: NCI tumour cell line growth inhibition, 48 h
measured.endpoint: TGI

Worked examples, 10 compounds total:
[
  {
    "compound": "NC(Cc1ccccc1)C(=O)O (stereo not drawn)",
    "reported.result": "> 100 µM"
  },
  {
    "compound": "NC(=S)NS(=O)(=O)c1ccc(Cl)cc1Cl",
    "reported.result": "> 100 µM"
  },
  {
    "compound": "CC(=O)Nc1oc(C)nc1C#N",
    "reported.result": "> 100 µM"
  },
  {
    "compound": "Cc1cn(C2CC(O)C(Cn3cc(Cn4nc(Br)c(=O)[nH]c4=O)nn3)O2)c(=O)[nH]c1=O (stereo not drawn)",
    "reported.result": "> 100 µM"
  },
  {
    "compound": "CCc1ccc(/C=C2/SC(=S)NC2=O)cc1",
    "reported.result": "37.6 µM"
  },
  {
    "compound": "O/N=C1/CCCCC1NO (stereo not drawn)",
    "reported.result": "> 100 µM"
  },
  {
    "compound": "CN(C)CCCN1C(=O)N(CCCN(C)C)c2c3cc(O)ccc3nc3c([N+](=O)[O-])ccc1c23",
    "reported.result": "30.4 µM"
  },
  {
    "compound": "Cn1c(=O)n2n(c1=O)C1C(=CC2)C2C=CC1n1c(=O)n(C)c(=O)n12 (stereo not drawn)",
    "reported.result": "> 100 µM"
  },
  {
    "compound": "Cc1ccc(C)c2sc3cc(=O)ccc-3nc12",
    "reported.result": "31 µM"
  },
  {
    "compound": "Cc1cc(=O)[nH]c(S(=O)(=O)NC(=S)Nc2ccc(Br)cc2)n1",
    "reported.result": "> 100 µM"
  }
]

Short answer for Nc1ccccc1C#Cc1ccccc1C#CCCCCO : TGI was 94.3 µM

Short answer for CCOC(=O)c1c(C)n(CCN2CCN(C)CC2)c2ccc(OC)cc12 : TGI was 30.8 µM

Short answer for CCCCCCCCSC(SCCCCCCCC)=C1C(=O)N(c2ccccc2)N=C1C : TGI was > 100 µM

Short answer for C/C(=N\n1c(N)c(C#N)c(-c2ccc(Cl)cc2)c(C#N)c1=O)c1cccnc1 : TGI was > 100 µM

Short answer for CC1Oc2c(c(O)cc3oc(=O)cc(-c4ccccc4)c23)C(=O)C1C (stereo not drawn) : TGI was > 100 µM

====

Entries and their TGI values follow.
system: UO-31 renal; assay: NCI tumour cell line growth inhibition, 48 h

Worked examples, 2 compounds total:
[
  {
    "compound": "COc1ccc(CNc2cnc3cc(N)ccc3n2)cc1OC",
    "TGI": "> 100 µM"
  },
  {
    "compound": "COc1ccc2c3c([nH]c2c1)[C@H]1C[C@H]2[C@H](C[C@@H](O)[C@H](OC)[C@H]2C(=O)O)CN1CC3",
    "TGI": "> 100 µM"
  }
]

Short answer for COc1ccc2c(c1)[n+]([O-])c(-c1ccc(Cl)c(Cl)c1)c(N)[n+]2[O-] : TGI was > 100 µM

Short answer for Cc1cc(Br)cc(C)c1NC(=O)C(=O)C(C(=O)c1ccc(Cl)c(Cl)c1)C1OC(=O)c2ccccc21 (centres undefined) : TGI was > 100 µM

Short answer for NC(=S)NS(=O)(=O)c1ccc(Cl)cc1Cl : TGI was > 100 µM

Short answer for C(=C1/CCCCC([n+]2ccccc2)=N1)/c1ccccc1 : TGI was > 100 µM

Short answer for O=C(NC(Cc1c[nH]c2ccccc12)C(=O)O)/C(=C/c1ccccc1)NC(=O)c1ccccc1 (centres undefined) : TGI was > 100 µM

Short answer for CCCNC(=O)Cn1c(-c2ccccc2)cc2ccccc21 : TGI was > 100 µM

Short answer for ClCc1ccc(Cn2cnc3ncnc(Cl)c32)cc1 : TGI was 66.7 µM

Short answer for Cc1ccc(C)c2sc3cc(=O)ccc-3nc12 : TGI was > 100 µM

Short answer for O=C(c1ccccc1)c1ccc2c(c1)N=C(c1ccc(Cl)c(Cl)c1)CC(c1ccc3ccccc3c1)N2 (centres undefined) : TGI was > 100 µM

Short answer for CC1=C[C@H]2C[C@@]3(C)O[C@@H]([C@]4(C)CC[C@H]([C@@H](C)C(=O)O)OO4)CC3C(C)(C)[C@H]2CC1 (some centres undefined) : TGI was 2.59 µM

====

Entries and their TGI values follow.
test system: M14 melanoma; test: NCI tumour cell line growth inhibition, 48 h
Output spec: scalar in µM, unitless text.

Worked examples, 3 compounds total:
[
  {
    "molecule.smiles": "N#CC(C#N)=C/C=C/c1cccc([N+](=O)[O-])c1",
    "units.symbol": "µM",
    "TGI": 2.18
  },
  {
    "molecule.smiles": "O=C(Nc1ccc(-c2nc3ccc(NC(=O)c4ccc(Cl)cc4)cc3[nH]2)cc1)c1ccc(Cl)cc1",
    "units.symbol": "µM",
    "TGI": 18
  },
  {
    "molecule.smiles": "COc1cc([N+](=O)[O-])c2ncccc2c1O",
    "units.symbol": "µM",
    "TGI": 3.02
  }
]

Pending compound:
Short answer for CCNC1=CC(=O)c2ncccc2C1=O : TGI was 2.46
